system: CAKI-1 renal; test: NCI-60 one-dose screen, 48 h (100 = growth as untreated, 0 = no growth, -100 = all killed); conditions: 10 µM unless noted
Compounds without any hit were thinned out: in the full panel of roughly 83,000, 20% have a hit.
Parameter: growth (%)

compound=CN(C)C(=N)N=C(N)N assayed_target="CAKI-1 renal" measured_number=115
compound=O=C(O)Cc1cc(=O)[nH]n(-c2ccccc2)c1=O assayed_target="CAKI-1 renal" measured_number=83.5
compound="Cc1ccc(NC(=S)N/C=C(\\c2ccccc2)S(=O)Cc2ccccc2)c(C)c1 (centres undefined)" assayed_target="CAKI-1 renal" measured_number=87.5
compound="CCN(CC)C(CC(=O)c1ccccc1)C(=O)c1ccccc1 (centres undefined)" assayed_target="CAKI-1 renal" measured_number=101
compound="O=[N+]([O-])c1ccc(NC(c2ccccc2)c2ccc3cccnc3c2O)cc1 (centres undefined)" assayed_target="CAKI-1 renal" measured_number=2.88
compound=CCc1ccc(OC(=O)CCl)cc1 assayed_target="CAKI-1 renal" measured_number=101
compound=Cn1c(-c2ccccc2)cc(=O)cc1-c1ccccc1 assayed_target="CAKI-1 renal" measured_number=83.6
compound="CC1CC(O)CC(C)(C)C1.CC1CC(O)CC(C)(C)C1.CC1CC(O)CC(C)(C)C1.CC1CC(O)CC(C)(C)C1.[Ti] (centres undefined)" assayed_target="CAKI-1 renal" measured_number=94.9
compound=COc1ccc(CCN=Cc2ccc(Cl)cc2)cc1OC assayed_target="CAKI-1 renal" measured_number=101
